- Experimental Target: GTPase KRas (Homo sapiens, UniProt P01116, G12V)
- Run Description: Binding affinity to Cys12 residue of GDP bound human KRAS […] mutant expressed in Escherichia coli BL21 Rosetta cells assessed as dissociation constant by HSQC NMR spectral analysis
Parameter: Kd. Scope: all listed entries.

C[C@]1(c2nc(-c3ccc(N)cc3)no2)CCCc2sc(N)c(C#N)c21; < 10 µM

Would you kindly look at the next entry?
Query string: Kd of C[C@]1(c2nc(-c3cccc(N)c3)no2)CCCc2sc(N)c(C#N)c21 on GTPase KRas (Homo sapiens, UniProt P01116, G12V)?
Result string: < 10 µM
